- Tested on: DMS-114 complex spheroids with HUVEC/MSC, growth % test/control
- PROCEDURE_SUMMARY: Anticancer human tumor DMS-114 cell line growth inhibition [AhR]
- RUN_PARAMETERS: second compound 0.1 µM; first compound 0.000949 µM; stronger effect = lower value
RESULT_TYPE: viability, T/C (%)
Quick reminder: number only, in %, skip the unit.

CC(C)CC(NC(=O)C(Cc1ccccc1)NC(=O)c1cnccn1)B(O)O (stereo not drawn) + CC(CO)NC(=O)c1cc(-c2ccc(Cl)cc2)nn(-c2cnn(C)c2)c1=O	100

Quick check: viability, T/C of CCc1c2c(nc3ccc(O)cc13)-c1cc3c(c(=O)n1C2)COC(=O)[C@]3(O)CC + CC(CO)NC(=O)c1cc(-c2ccc(Cl)cc2)nn(-c2cnn(C)c2)c1=O ? 56.4

Sample CC(C)CC(NC(=O)C(Cc1ccccc1)NC(=O)c1cnccn1)B(O)O (stereo not drawn) + Cc1ccccc1N=Nc1ccc(NC(=O)c2ccnn2C)c(C)c1 — what was its viability, T/C? 90.3

* * *

- Test system: DMS-114 complex spheroids with HUVEC/MSC, growth % test/control
- PROCEDURE_SUMMARY: Anticancer human tumor DMS-114 cell line growth inhibition [AhR]; active = viability on the fitted dose curve at most 10% of control; inactive = the rest
- RUN_PARAMETERS: second compound 3.16 µM; first compound 1 µM
Your reply should match one of these outcome classes. active, inactive

A selection of reference data follows.
CC1COCCN1c1cc(C2(S(C)(=N)=O)CC2)nc(-c2ccnc3[nH]ccc23)n1 (stereo not given) + CC(CO)NC(=O)c1cc(-c2ccc(Cl)cc2)nn(-c2cnn(C)c2)c1=O	inactive
NS(=O)(=O)OCC1CC(n2ccc3c(NC4CCc5ccccc54)ncnc32)CC1O (stereo not given) + CC(CO)NC(=O)c1cc(-c2ccc(Cl)cc2)nn(-c2cnn(C)c2)c1=O	inactive
CC1COCCN1c1cc(-c2ccnn2C)c2ccnc(-c3ccn[nH]3)c2n1 (stereo not given) + Cc1cncc(-c2nc(NCCc3c[nH]c4ccccc34)c3ncn(C(C)C)c3n2)c1	inactive
O=C(C=Cc1cccc(S(=O)(=O)Nc2ccccc2)c1)NO + Cc1cncc(-c2nc(NCCc3c[nH]c4ccccc34)c3ncn(C(C)C)c3n2)c1	inactive
COc1cc(C2c3cc4c(cc3C(OC3OC5COC(C)OC5C(O)C3O)C3COC(=O)C23)OCO4)cc(OC)c1O (stereo not given) + CC(CO)NC(=O)c1cc(-c2ccc(Cl)cc2)nn(-c2cnn(C)c2)c1=O	inactive

Outcome logged for Nc1ncn(C2CC(O)C(CO)O2)c(=O)n1 (stereo not given) + Cc1cncc(-c2nc(NCCc3c[nH]c4ccccc34)c3ncn(C(C)C)c3n2)c1 in this assay: inactive

Please share the test call associated with Nc1ncn(C2CC(O)C(CO)O2)c(=O)n1 (stereo not given) + Cc1ccccc1N=Nc1ccc(NC(=O)c2ccnn2C)c(C)c1 . inactive

Any idea what this test logged for COc1cccc2c1C(=O)c1c(O)c3c(c(O)c1C2=O)CC(O)(C(=O)CO)CC3OC1CC(N)C(O)C(C)O1 (stereo not given) + Cc1cncc(-c2nc(NCCc3c[nH]c4ccccc34)c3ncn(C(C)C)c3n2)c1 ? active

Dear colleague, could you share the recorded outcome for NS(=O)(=O)OCC1CC(n2ccc3c(NC4CCc5ccccc54)ncnc32)CC1O (stereo not given) + Cc1cncc(-c2nc(NCCc3c[nH]c4ccccc34)c3ncn(C(C)C)c3n2)c1 when you have a moment? active

Which outcome was assigned to O=C(c1cc(Cc2n[nH]c(=O)c3ccccc23)ccc1F)N1CCN(C(=O)C2CC2)CC1 + Cc1ccccc1N=Nc1ccc(NC(=O)c2ccnn2C)c(C)c1 in this test? inactive

Check the results log: what was the call for COc1cccc2c1C(=O)c1c(O)c3c(c(O)c1C2=O)CC(O)(C(=O)CO)CC3OC1CC(N)C(O)C(C)O1 (stereo not given) + CC(CO)NC(=O)c1cc(-c2ccc(Cl)cc2)nn(-c2cnn(C)c2)c1=O ? active

* * *

- Tested on: DMS-114 complex spheroids with HUVEC/MSC, growth % test/control
- PROCEDURE_SUMMARY: Anticancer human tumor DMS-114 cell line growth inhibition [AhR];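 also: spheroids exposed to agents for 7 days before readout; 100% = DMSO vehicle control wells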
- RUN_PARAMETERS: second compound 1 µM; first compound 3.16 µM; stronger effect = lower value
- Excerpt: Multicellular complex tumor spheroid response to aryl hydrocarbon receptor antagonists in combination with a variety of drugs and investigational agents in selected tumor cell lines […] Compounds. […] If the clinical Cmax for an agent had not been determined, the highest concentration tested was 10 microM (Table 1). […]
RESULT_TYPE: viability, T/C (%)
Express your answer in %, writing the number without its unit.

O=C(c1cc(Cc2n[nH]c(=O)c3ccccc23)ccc1F)N1CCN(C(=O)C2CC2)CC1 + CC(CO)NC(=O)c1cc(-c2ccc(Cl)cc2)nn(-c2cnn(C)c2)c1=O	102

For the compound shown here, O=C(c1cc(Cc2n[nH]c(=O)c3ccccc23)ccc1F)N1CCN(C(=O)C2CC2)CC1 + Cc1cncc(-c2nc(NCCc3c[nH]c4ccccc34)c3ncn(C(C)C)c3n2)c1 , give the reported viability, T/C. 83.7

Look up viability, T/C for this compound: COc1ccc([C@@H](O)c2cc(-c3ncnc4cc(N5CCOCC5)ccc34)c(F)cc2Cl)nn1 + CC(CO)NC(=O)c1cc(-c2ccc(Cl)cc2)nn(-c2cnn(C)c2)c1=O 98.3

* * *

- System: DMS-114 complex spheroids with HUVEC/MSC, growth % test/control
- PROCEDURE_SUMMARY: Anticancer human tumor DMS-114 cell line growth inhibition [AhR];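 also: spheroids exposed to agents for 7 days before readout; 100% = DMSO vehicle control wells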
- RUN_PARAMETERS: second compound 0.316 µM; first compound 0.316 µM; stronger effect = lower value
Listing of entries alongside the reported viability, T/C.
Kindly provide the numeric value in % only, without the unit symbol.

Here are 3 compounds together with their reported answers.
COc1cc(C2c3cc4c(cc3C(OC3OC5COC(C)OC5C(O)C3O)C3COC(=O)C23)OCO4)cc(OC)c1O (centres undefined) + Cc1cncc(-c2nc(NCCc3c[nH]c4ccccc34)c3ncn(C(C)C)c3n2)c1	50.4
COc1cccc2c1C(=O)c1c(O)c3c(c(O)c1C2=O)CC(O)(C(=O)CO)CC3OC1CC(N)C(O)C(C)O1 (centres undefined) + CC(CO)NC(=O)c1cc(-c2ccc(Cl)cc2)nn(-c2cnn(C)c2)c1=O	8.15
O=C(c1cc(Cc2n[nH]c(=O)c3ccccc23)ccc1F)N1CCN(C(=O)C2CC2)CC1 + Cc1cncc(-c2nc(NCCc3c[nH]c4ccccc34)c3ncn(C(C)C)c3n2)c1	102

// below: viability, T/C requested for another compound
Field: viability, T/C (DMS-114 complex spheroids with HUVEC/MSC, growth % test/control). Entry: CC1(C)CCC(CN2CCN(c3ccc(C(=O)NS(=O)(=O)c4ccc(NCC5CCOCC5)c([N+](=O)[O-])c4)c(Oc4cnc5[nH]ccc5c4)c3)CC2)=C(c2ccc(Cl)cc2)C1 + Cc1cncc(-c2nc(NCCc3c[nH]c4ccccc34)c3ncn(C(C)C)c3n2)c1 95.5

* * *

- Tested on: DMS-114 complex spheroids with HUVEC/MSC, growth % test/control
- PROCEDURE_SUMMARY: Anticancer human tumor DMS-114 cell line growth inhibition [AhR]; active = viability on the fitted dose curve at most 10% of control; inactive = the rest;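 also: spheroids exposed to agents for 7 days before readout; 100% = DMSO vehicle control wells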
- RUN_PARAMETERS: second compound 3.16 µM; first compound 10 µM
One label from this list, please: 1 (yes) for active, 0 (no) for inactive

Solved entries:
CC(C)c1c(-c2ccccc2)nc2c(C#N)c[nH]n2c1=O + Cc1ccccc1N=Nc1ccc(NC(=O)c2ccnn2C)c(C)c1	0 (no)
COc1cc(Nc2ncc3c(n2)-c2ccc(Cl)cc2C(c2c(F)cccc2OC)=NC3)ccc1C(=O)O + Cc1ccccc1N=Nc1ccc(NC(=O)c2ccnn2C)c(C)c1	0 (no)
CC1COCCN1c1cc(C2(S(C)(=N)=O)CC2)nc(-c2ccnc3[nH]ccc23)n1 (stereo unspecified) + Cc1ccccc1N=Nc1ccc(NC(=O)c2ccnn2C)c(C)c1	0 (no)

Query: recorded result category for COc1cccc2c1C(=O)c1c(O)c3c(c(O)c1C2=O)CC(O)(C(=O)CO)CC3OC1CC(N)C(O)C(C)O1 (stereo unspecified) + CC(CO)NC(=O)c1cc(-c2ccc(Cl)cc2)nn(-c2cnn(C)c2)c1=O in this test 1 (yes)

Kindly provide the recorded test outcome for the following compound: O=C(c1cc(Cc2n[nH]c(=O)c3ccccc23)ccc1F)N1CCN(C(=O)C2CC2)CC1 + Cc1ccccc1N=Nc1ccc(NC(=O)c2ccnn2C)c(C)c1 0 (no)

Call for entry COc1cc(C2c3cc4c(cc3C(OC3OC5COC(C)OC5C(O)C3O)C3COC(=O)C23)OCO4)cc(OC)c1O (stereo unspecified) + Cc1ccccc1N=Nc1ccc(NC(=O)c2ccnn2C)c(C)c1 : 0 (no)

* * *

- System: DMS-114 complex spheroids with HUVEC/MSC, growth % test/control
- PROCEDURE_SUMMARY: Anticancer human tumor DMS-114 cell line growth inhibition [AhR];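 also: spheroids exposed to agents for 7 days before readout; 100% = DMSO vehicle control wells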
- RUN_PARAMETERS: second compound 10 µM; first compound 0.0316 µM; stronger effect = lower value
RESULT_TYPE: viability, T/C (%)
Field: numeric (%). Do not append units.

Solved cases (4 shown):
COc1ccc([C@@H](O)c2cc(-c3ncnc4cc(N5CCOCC5)ccc34)c(F)cc2Cl)nn1 + Cc1cncc(-c2nc(NCCc3c[nH]c4ccccc34)c3ncn(C(C)C)c3n2)c1	35.6
CC1COCCN1c1cc(-c2ccnn2C)c2ccnc(-c3ccn[nH]3)c2n1 (configuration not stated) + Cc1cncc(-c2nc(NCCc3c[nH]c4ccccc34)c3ncn(C(C)C)c3n2)c1	22.6
Nc1ccn(C2OC(CO)C(O)C2(F)F)c(=O)n1 (configuration not stated) + CC(CO)NC(=O)c1cc(-c2ccc(Cl)cc2)nn(-c2cnn(C)c2)c1=O	11.6
CC[C@@]1(O)C(=O)OCc2c1cc1n(c2=O)Cc2cc3c(CN(C)C)c(O)ccc3nc2-1 + CC(CO)NC(=O)c1cc(-c2ccc(Cl)cc2)nn(-c2cnn(C)c2)c1=O	48.1

Reported viability, T/C for O=C(c1cc(Cc2n[nH]c(=O)c3ccccc23)ccc1F)N1CCN(C(=O)C2CC2)CC1 + Cc1ccccc1N=Nc1ccc(NC(=O)c2ccnn2C)c(C)c1 : what is it? 87.2

Consider the compound CC1(C)CCC(CN2CCN(c3ccc(C(=O)NS(=O)(=O)c4ccc(NCC5CCOCC5)c([N+](=O)[O-])c4)c(Oc4cnc5[nH]ccc5c4)c3)CC2)=C(c2ccc(Cl)cc2)C1 + Cc1cncc(-c2nc(NCCc3c[nH]c4ccccc34)c3ncn(C(C)C)c3n2)c1 and give its measured viability, T/C. 50.9

Which value of viability, T/C has been reported for Nc1ccccc1NC(=O)c1ccc(CNC(=O)OCc2cccnc2)cc1 + Cc1ccccc1N=Nc1ccc(NC(=O)c2ccnn2C)c(C)c1 in the records? 91.6

Numbers sourced from PubChem BioAssay AID1919008.
